Target: F508del in NIH 3T3 cells (Homo sapiens, UniProt P13569, DEL508-508)
Sequence (P13569 with tags, fused parts or gaps DEL508-508): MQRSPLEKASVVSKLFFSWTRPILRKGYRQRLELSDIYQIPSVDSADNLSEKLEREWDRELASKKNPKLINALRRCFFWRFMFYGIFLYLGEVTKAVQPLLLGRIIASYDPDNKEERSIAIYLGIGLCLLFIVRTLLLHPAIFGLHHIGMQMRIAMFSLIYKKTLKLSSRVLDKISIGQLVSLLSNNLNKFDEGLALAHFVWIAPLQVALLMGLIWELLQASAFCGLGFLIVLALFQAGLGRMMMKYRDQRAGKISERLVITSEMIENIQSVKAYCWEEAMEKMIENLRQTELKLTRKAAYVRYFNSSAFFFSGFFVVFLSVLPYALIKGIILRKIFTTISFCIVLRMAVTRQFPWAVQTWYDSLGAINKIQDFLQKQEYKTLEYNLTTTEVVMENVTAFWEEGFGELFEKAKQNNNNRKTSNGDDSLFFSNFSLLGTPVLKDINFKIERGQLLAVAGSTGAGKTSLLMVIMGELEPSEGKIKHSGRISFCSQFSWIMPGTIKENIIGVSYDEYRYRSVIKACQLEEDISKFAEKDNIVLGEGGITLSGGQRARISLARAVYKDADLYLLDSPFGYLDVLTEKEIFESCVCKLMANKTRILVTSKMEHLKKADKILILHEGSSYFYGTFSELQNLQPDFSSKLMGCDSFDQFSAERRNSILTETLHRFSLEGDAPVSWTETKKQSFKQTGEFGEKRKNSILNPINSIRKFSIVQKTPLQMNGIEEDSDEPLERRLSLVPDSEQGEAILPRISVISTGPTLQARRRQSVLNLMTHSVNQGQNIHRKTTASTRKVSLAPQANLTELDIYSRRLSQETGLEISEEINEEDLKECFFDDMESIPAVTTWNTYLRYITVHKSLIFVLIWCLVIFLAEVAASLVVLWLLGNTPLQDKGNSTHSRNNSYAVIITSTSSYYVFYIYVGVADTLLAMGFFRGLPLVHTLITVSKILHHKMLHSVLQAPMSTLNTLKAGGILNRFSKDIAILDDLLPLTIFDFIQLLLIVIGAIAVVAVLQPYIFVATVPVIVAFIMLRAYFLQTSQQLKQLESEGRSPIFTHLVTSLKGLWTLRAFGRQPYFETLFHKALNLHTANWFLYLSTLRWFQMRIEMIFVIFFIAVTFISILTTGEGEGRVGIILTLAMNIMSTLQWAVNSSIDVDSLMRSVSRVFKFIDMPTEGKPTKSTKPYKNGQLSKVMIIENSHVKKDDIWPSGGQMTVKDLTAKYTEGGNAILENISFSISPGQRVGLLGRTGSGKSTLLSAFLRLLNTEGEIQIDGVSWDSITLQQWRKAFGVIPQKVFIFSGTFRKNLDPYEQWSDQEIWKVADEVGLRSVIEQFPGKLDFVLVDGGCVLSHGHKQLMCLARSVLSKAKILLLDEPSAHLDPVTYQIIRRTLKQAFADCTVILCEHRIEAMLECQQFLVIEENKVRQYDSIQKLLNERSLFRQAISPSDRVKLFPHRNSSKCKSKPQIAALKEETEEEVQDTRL
Experiment: 3T3 assay: membrane potential optical assay for F508del correction
Conditions: F508del NIH 3T3 cells, compound incubation 18-24 hours at 37° C., forskolin activation
pEC50: −log10 of the molar value.
Catalogue of pEC50 values

# count of solved cases: 3
compound="Cc1cccc(C)c1-c1cc2nc(n1)NS(=O)(=O)c1cccc(c1)C(=O)O[C@H](c1ccc(C(C)(C)C)cn1)[C@@H](CC(C)C)N2C [Compound 35]" observed="> 6.00"
compound="Cc1cccc(C)c1-c1cc2nc(n1)NS(=O)(=O)c1cccc(c1)NC(=O)CCC2 [Compound 13]" observed="5.52 to 6.00"
compound="Cc1cccc(C)c1-c1cc2nc(n1)NS(=O)(=O)c1cccc(c1)NC(=O)CCCCC2 [Compound 1]" observed="> 6.00"

-- ask Would you mind telling me what pEC50 value was observed for Cc1cccc(C)c1-c1cc2nc(n1)NS(=O)(=O)c1cccc(c1)NC(=O)CCCC2 [Compound 12] ?
-- reply 5.52 to 6.00

-- ask Tell me the measured pEC50 of Cc1cccc(C)c1-c1cc2nc(n1)NS(=O)(=O)c1cccc(c1)NC(=O)c1cccc(c1)C2 [Compound 2] , please.
-- reply 5.52 to 6.00

###

Molecular target: CFTR-mediated chloride transport in human intestinal epithelial enteroid cells (Homo sapiens, UniProt P13569)
Sequence (P13569 with tags, fused parts or gaps DEL508-508): as above
Test: Membrane potential dye, Enteroid Assay B
Assay type: cell-based
Conditions: % of chloride transport of triple combination control: 1 μM (14S)-8-[3-(2-{Dispiro[2.0.2.1]heptan-7-yl}ethoxy)-1H-pyrazol-1-yl]-12,12-dimethyl-...-2,2,4-trione, 3 μM tezacaftor, 300 nM acute ivacaftor
measured.metric: Ent. B Max Activity

molecule="Cc1cccc(C)c1-c1cc2nc(n1)NS(=O)(=O)c1cccc(c1)C(=O)OC[C@@H](CC(C)(C)C)N2Cc1nccc(C(F)(F)F)n1 [Compound 32]" observed="+ (+ is <30%)"
molecule="Cc1cccc(C)c1-c1cc2nc(n1)NS(=O)(=O)c1cccc(c1)C(=O)OC[C@@H](CC(C)(C)C)N2c1ccnn1C [Compound 29]" observed="+ (+ is <30%)"

###

Target: CFTR-mediated chloride transport in human intestinal epithelial enteroid cells (Homo sapiens, UniProt P13569)
Assay: Membrane potential dye, Enteroid Assay B
Type: cell-based
Details: % of chloride transport of triple combination control: 1 μM (14S)-8-[3-(2-{Dispiro[2.0.2.1]heptan-7-yl}ethoxy)-1H-pyrazol-1-yl]-12,12-dimethyl-...-2,2,4-trione, 3 μM tezacaftor, 300 nM acute ivacaftor
Procedure: Base medium (ADF+++) consisted of Advanced DMEM/Ham's F12, 2 mM Glutamax, 10 mM HEPES, […] penicillin/streptomycin. […] Enteroid cells were incubated with test compound in IEMM for 18-24 hours at 37° C., 95% humidity, and 5% C02. […] Chloride transport was initiated by addition of Chloride Free Dye Stimulation Solution and the fluorescence signal was read for 15 minutes. […]
measured.metric: Ent. B Max Activity

Sample answers from the record:
molecule=Cc1cccc(C)c1-c1cc2nc(n1)NS(=O)(=O)c1cccc(n1)C(=O)N(C1CC3(CC3)C1)[C@H](CC(C)C)CC2 observed="++ (++ is 30-60%)"
molecule="Cc1cccc(C)c1-c1cc2nc(n1)NS(=O)(=O)c1cccc(c1)C(=O)N(C1CC3(CC3)C1)CC[C@H]2c1ccc(C(C)(C)C)cc1 [Compound 23]" observed="++ (++ is 30-60%)"
molecule="Cc1cccc(C)c1-c1cc2nc(n1)NS(=O)(=O)c1cccc(c1)C(=O)N(C1CC3(CC3)C1)CC2Cc1ccc(C(C)(C)C)cc1 (stereo not shown)" observed="++ (++ is 30-60%)"
molecule="Cc1cccc(C)c1-c1cc2nc(n1)NS(=O)(=O)c1cccc(c1)C(=O)N(Cc1ncccn1)CCC2C (stereo not shown)" observed="+++ (+++ is >60%)"
molecule="Cc1cccc(C)c1-c1cc2nc(n1)NS(=O)(=O)c1cccc(c1)C(=O)NCCC2c1ccc(C(C)(C)C)cc1 (stereo not shown)" observed="+++ (+++ is >60%)"

# evaluate next
-- ask So what does the record say about Ent. B Max Activity for Cc1cccc(C)c1-c1cc2nc(n1)NS(=O)(=O)c1cccc(c1)C(=O)N(C1CC3(CC3)C1)CCC2c1ccc(C(C)(C)C)cc1 (stereo not shown) ?
-- reply ++ (++ is 30-60%)
